- target.system: AD brain-derived tau seeds (Homo sapiens, UniProt P10636, C639S)
- Sequence (P10636 1-352 isoform P10636-2 C233S): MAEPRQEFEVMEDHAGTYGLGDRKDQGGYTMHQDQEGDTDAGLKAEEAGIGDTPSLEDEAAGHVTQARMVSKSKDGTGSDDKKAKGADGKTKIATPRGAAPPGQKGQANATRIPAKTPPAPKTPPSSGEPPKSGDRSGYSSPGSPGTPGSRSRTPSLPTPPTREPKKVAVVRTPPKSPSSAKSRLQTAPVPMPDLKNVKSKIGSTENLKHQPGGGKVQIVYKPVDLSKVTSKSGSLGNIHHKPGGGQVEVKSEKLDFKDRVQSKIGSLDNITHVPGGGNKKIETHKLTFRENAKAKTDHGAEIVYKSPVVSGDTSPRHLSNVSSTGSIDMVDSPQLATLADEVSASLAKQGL
- protocol: biochemical
- Type: biochemical
quantity.name: maximum thioflavin fluorescence (ThT Max)

>>> experimental_value("Nc1ccc2nc3ccc(N)cc3[s+]c2c1")
"approaching the baseline"
>>> experimental_value("Nc1c(/N=N/c2ccc(-c3ccc(/N=N/c4cc(S(=O)(=O)O)c5ccccc5c4N)cc3)cc2)cc(S(=O)(=O)O)c2ccccc12")
"approaching the baseline"
>>> experimental_value("CN(C)c1ccc2nc3ccc(N)cc3[s+]c2c1.[Cl-]")
"approaching the baseline"

----------
- target.system: AD brain-derived tau seeds (Homo sapiens, UniProt P10636, C639S)
- protocol: biochemical
- Type: biochemical
- experimental.context: read-out: percent inhibition (vehicle AUC 100% minus percent AUC of compound)
Label true (1) when inhibition at 100 µM is at or above 80%; anything below gets false (0).

>>> class_name("Brc1cccc(-c2cc(-c3ccc4c(c3)OCO4)[nH]n2)c1 [anle138b]")
"false (0)"
>>> class_name("CCN(CC)CCNC(=O)c1c(C)[nH]c(/C=C2\\C(=O)Nc3ccc(F)cc32)c1C [Sunitinib]")
"true (1)"
>>> class_name("O=c1cc(-c2ccccc2)oc2cc(O)c(O)c(O)c12 [baicalein]")
"true (1)"
>>> class_name("CC(=O)c1c(O)c(C)c(O)c2c1OC1=CC(=O)C(C(C)=O)C(=O)C12C (centres unmarked) [usnic acid]")
"false (0)"
>>> class_name("O=C(c1cc(O)c(O)c(O)c1)c1ccc(O)c(O)c1O [Exifone]")
"true (1)"
>>> class_name("CNc1ccc2nc3ccc(N)cc3[s+]c2c1 [azure C]")
"true (1)"
>>> class_name("C=CCc1ccc(O)c(-c2ccc(O)c(CC=C)c2)c1 [honokiol]")
"true (1)"

----------
- target.system: AD brain-derived tau seeds (Homo sapiens, UniProt P10636, C639S)
- protocol: biochemical
- Assay type: biochemical
- experimental.context: 100 µM
quantity.name: percent inhibition (vehicle AUC 100% minus percent AUC of compound)

>>> experimental_value("CNc1ccc2nc3ccc(=[N+](C)C)cc-3sc2c1.[Cl-]")
"> 95%"
>>> experimental_value("CN(C)c1ccc2nc3ccc(N)cc3[s+]c2c1.[Cl-]")
"> 95%"
>>> experimental_value("Oc1cc(O)c2c(c1)O[C@H](c1ccc(O)c(O)c1)[C@@H](O)C2 [(+)-catechin]")
"89%"

Where do these numbers come from? They come from paper PMC12482674.
